Experimental Target: Herceptin Fab with a kappa light chain and binding specificity for Her2/neu (from the monoclonal antibody trastuzumab)
Assay Comment: BLI (ForteBio), biotinylated ligand on sensor, as in Example 2
Assay Endpoint: Kd (nM)
Answer with a number only, understood to be in nM.

Binder	Unit String	Kd
affinity ligand SEQ ID NO: 89 (designed binder, biotinylated (AviTag system)) MGGGGSAAAGDEAQHWENQGAAYAARGDYDRAIEYYGRALELDPNNAWAWWELGVAYAARGDYDRAIEYYERALELDPDDATTWSRLGHAYAARGDYDRAIEYYERALELDPEDETARYLLEHARRARQGQAGQGGGSGLNDIFEAQKIEWHECHHHHHH	nM	41
affinity ligand SEQ ID NO: 92 (designed binder, biotinylated (AviTag system)) MGGGGSAAAGDEAQRWENQGAAYAARGDYDRAIEYYERALELEPNNAWAWWELGVAYAARGDYDRAIEYYERALELDPDDATAWSRLGHAYAARGDYDRAIGYYERALELDPENETARYLLEHARRARQGQAGQGGGSGLNDIFEAQKIEWHECHHHHHH	nM	28
affinity ligand SEQ ID NO: 90 (designed binder, biotinylated (AviTag system)) MGGGGSAAAGDEAQCWENQGAAYAARGDYDRAIEYYERALELDPNNAWAWWELGVAYAARGDYDRAIEYYERALELDPDDATTWSRLGHAYAARGDYDRAIEYYVRALELDPEDETARYLLEHARRARQGQAGQGGGSGLNDIFEAQKIEWHECHHHHHH	nM	51

For the next question, use this binder.
Looking up affinity ligand SEQ ID NO: 41 (designed binder, biotinylated (AviTag system)) MAQAAAGDEAQRWETLGAAYAARGDYDRAIEYYQRALELDPNNAWAWWELGVAYAARGDYDRAIEYYQRALELDPDDAAAWRRLGHAYAARGDYDRAIEYYERALELDPEDELARRILEDARRARQGQAGQGGGSGLNDIFEAQKIEWHECHHHHHH , I see its Kd listed as 15
